Target: BACE1 (Homo sapiens (Human))
Sequence (P56817 46-501): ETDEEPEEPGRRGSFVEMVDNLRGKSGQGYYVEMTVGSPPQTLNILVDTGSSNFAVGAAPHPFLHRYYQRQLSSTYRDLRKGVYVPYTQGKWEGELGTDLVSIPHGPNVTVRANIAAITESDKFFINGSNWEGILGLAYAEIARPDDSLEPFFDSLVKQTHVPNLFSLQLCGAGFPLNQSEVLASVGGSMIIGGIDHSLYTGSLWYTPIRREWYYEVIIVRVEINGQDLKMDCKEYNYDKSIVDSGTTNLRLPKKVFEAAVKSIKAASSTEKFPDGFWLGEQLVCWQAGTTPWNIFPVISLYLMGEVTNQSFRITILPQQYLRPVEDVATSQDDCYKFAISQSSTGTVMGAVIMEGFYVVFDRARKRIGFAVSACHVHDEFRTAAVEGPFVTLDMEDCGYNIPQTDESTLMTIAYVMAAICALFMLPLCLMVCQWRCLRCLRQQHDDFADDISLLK
Assay: Cellular Aβ-lowering assay (Abeta 40 AlphaLISA) in HEK293 APP cells
Conditions: Aβ 40 in culture supernatant after 18-20 hrs incubation
With a cut-off of 40 nM, any IC50 strictly below it is called 1 (yes); any IC50 meeting it or above is called 0 (no).

1. Cc1cc(C#N)cnc1C(=O)Nc1ccc(F)c([C@]2(C)C[S@@]3(=O)=NCCCCN3C(N)=N2)n1    1 (yes)
2. N#Cc1ccc(C(=O)Nc2ccc(F)c([C@]3(CF)C[S@@]4(=O)=NCCCCN4C(N)=N3)n2)nc1    1 (yes)
3. N#Cc1ccc(C(=O)Nc2ccc(F)c([C@]3(CF)C[S@]4(=O)=NCCCCN4C(N)=N3)n2)nc1    0 (no)
4. C[C@@]1(c2nc(NC(=O)c3ccc(C#N)cn3)ccc2F)CS2(=O)=NCCCCN2C(N)=N1 (stereo in doubt) [Example 1]    0 (no)
5. C[C@@]1(c2nc(NC(=O)c3ccc(C#N)cn3)ccc2F)CS2(=O)=NCCCCN2C(N)=N1 (stereo in doubt) [Example 2]    0 (no)
